tested_on: E. coli CsgA (Escherichia coli, UniProt P28307)
Construct: made in house; host or cells: E. coli NEB 3016 slyD::kan, pET11d
Sequence (P28307 23-151): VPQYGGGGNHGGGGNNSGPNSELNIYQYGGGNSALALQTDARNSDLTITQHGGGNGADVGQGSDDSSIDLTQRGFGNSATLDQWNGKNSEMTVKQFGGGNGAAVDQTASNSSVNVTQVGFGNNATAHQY
test_method_notes: In vitro ThioflavinT assay of CsgA aggregation (CsgA ThT Assay)
Assay type: biochemical
condition_set: read-out: CsgA ThT Assay (10 μM CsgA) % Control AUC at 1005 minutes, 100 μM, mean AUC as % of DMSO control; CsgA 10 μM, black plates; compound 100 μM; 1005 minutes
Friendly reminder: remaining activity at 100 µM below 40% is true (1), at or above is false (0).

These recorded examples may help you get a feel for the data.
>  <compound>
O=C(O)C1CS(=O)(=O)c2c(-c3cccc(C(F)(F)F)c3)c(C(F)(F)c3cccc4ccccc34)cc(=O)n21 (stereo not shown)

>  <cat>
true (1)

$$$$
>  <compound>
CN(C)Cc1c(Cc2cccc3ccccc23)c(-c2cccc(C(F)(F)F)c2)c2n(c1=O)C(C(=O)O)CS2(=O)=O (stereo not shown)

>  <cat>
false (0)

$$$$
>  <compound>
CN1CC(C(=O)O)n2c(c(-c3cccc(C(F)(F)F)c3)c(Cc3cccc4ccccc34)c(N)c2=O)S1(=O)=O (stereo not shown)

>  <cat>
true (1)

$$$$
>  <compound>
CNC(=O)CN1CC(C(=O)O)n2c(c(-c3cccc(C(F)(F)F)c3)c(Cc3cccc4ccccc34)cc2=O)S1(=O)=O (stereo not shown)

>  <cat>
true (1)

$$$$
>  <compound>
CN1CC(C(=O)O)n2c(c(-c3cccc(C(F)(F)F)c3)c(Cc3ccc(N)c4ccccc34)cc2=O)S1(=O)=O (stereo not shown)

>  <cat>
true (1)

$$$$

Challenge: Hi there! Is remaining activity at 100 µM for "Cn1cc(C(=O)O)n2c(=O)cc(Cc3cccc4ccccc34)c(-c3cccc(C(F)(F)F)c3)c12" below 40%, do you know?
Response given: false (0)

Challenge: Hi there! Is remaining activity at 100 µM for CCCc1c(Cc2cccc3ccccc23)c(-c2cccc(C(F)(F)F)c2)c2n(c1=O)C(C(=O)O)CN(C)S2(=O)=O (stereo not shown) below 40%, do you know?
Response given: true (1)

Challenge: Hi there! Is remaining activity at 100 µM for CNC(=O)CCCCN1CC(C(=O)O)n2c(c(-c3cccc(C(F)(F)F)c3)c(Cc3cccc4ccccc34)cc2=O)S1(=O)=O (stereo not shown) below 40%, do you know?
Response given: true (1)

Challenge: Hi there! Is remaining activity at 100 µM for Cn1c(=O)c2c(ncn2CCCCN2CC(C(=O)O)n3c(c(-c4cccc(C(F)(F)F)c4)c(Cc4cccc5ccccc45)cc3=O)S2(=O)=O)n(C)c1=O (stereo not shown) below 40%, do you know?
Response given: false (0)

Challenge: Hi there! Is remaining activity at 100 µM for CCCN1CC(C(=O)O)n2c(c(-c3cccc(C(F)(F)F)c3)c(Cc3cccc4ccccc34)c(C(C)C)c2=O)S1(=O)=O (stereo not shown) below 40%, do you know?
Response given: false (0)

Challenge: Hi there! Is remaining activity at 100 µM for COC(=O)C1CSc2c(-c3cccc(C(F)(F)F)c3)c(Cc3cccc4ccccc34)cc(=O)n21 (stereo not shown) below 40%, do you know?
Response given: false (0)

Challenge: Hi there! Is remaining activity at 100 µM for CCCCCN1CC(C(=O)O)n2c(c(-c3cccc(C(F)(F)F)c3)c(Cc3ccc(N)c4ccccc34)cc2=O)S1(=O)=O (stereo not shown) below 40%, do you know?
Response given: true (1)

Challenge: Hi there! Is remaining activity at 100 µM for O=C(O)CN1CC(C(=O)O)n2c(c(-c3cccc(C(F)(F)F)c3)c(Cc3cccc4ccccc34)cc2=O)S1(=O)=O (stereo not shown) below 40%, do you know?
Response given: false (0)
